targetDesc: ERK2 (Q105T) (Homo sapiens, UniProt P28482, Q105T)
assayName: Coupled spectrophotometric kinase assay, ERK2 (Q105T)
setupConditions: 100 μM ATP, 200 μM EGF receptor peptide, read-out: Inhibition constants, Ki
readoutKind: pKi
In textbook form, pKi equals minus log to base ten of the concentration in mol/L.

Lookup: So what's the measured pKi for this one? Oc1ccc(-c2nc(-c3ccc(F)cc3)c(-c3ccncc3)[nH]2)cc1 [SB202190, reference compound]
Found: 8.17
